This section presents compounds with their documented melting point values.

# Compound, melting point
data = [
    ("Clc1cccc(Oc2ncccc2C2=NC(c3ccccc3)CO2)c1 (configuration not stated)", "78 to 80 °C"),
    ("Oc1nc(Cl)c(Cl)cc1Cl", "168 to 170 °C"),
    ("CCOC(=O)Cc1nccc(NC=O)n1", "80 to 93 °C"),
    ("Cn1c(=O)c(S(C)(=O)=O)c(N2CCN(C(=O)c3cccs3)CC2)c2ccccc21", "224 °C"),
    ("COc1ccccc1CCl", "69.5 to 70.5 °C"),
    ("Cc1cc(N)c([N+](=O)[O-])c(C)c1N", "124 °C"),
    ("CC1(C)CN2C(=O)c3ccccc3C(O)(c3ccccc3)C2=N1 (configuration not stated)", "186 to 188 °C"),
    ("Cc1cc(OCC(O)CNC(C)(C)C)ccc1C=O (configuration not stated)", "82 to 84 °C"),
    ("Cc1oc(-c2ccc(C(F)(F)F)cc2)cc1COc1cccc(C=O)c1", "85 to 86 °C"),
    ("O=c1[nH]c2cc(-c3ccccc3)nnc2c2ccccc12", "340 to 342 °C"),
    ("O=CN(O)C(CCCO)CS(=O)(=O)c1ccc(-c2ccc(F)cc2)cc1 (configuration not stated)", "143 to 144 °C"),
    ("COc1cc(-c2ccccc2Cl)c(Cl)cc1C(=O)N1Cc2cccn2Cc2ccccc21", "209 to 211 °C"),
    ("Clc1cccc(Nc2ncnc3[nH]nc(NCc4ccc(-c5ccccc5)cc4)c23)c1", "250 to 252 °C"),
    ("Cc1ccccc1NC(=O)c1cc(Br)c(OCc2ccccc2)cc1OCc1ccccc1", "174 to 176 °C"),
    ("CN1CCC(OC2c3ccccc3CCn3c2nc(-c2ccccc2)c3C=O)CC1 (configuration not stated)", "70 °C"),
    ("Cc1c(C)c(S(=O)(=O)C[N+](=O)[O-])c(C)c2c1OCCC2", "104 to 106 °C"),
    ("CC1C(=O)Oc2cc(N3CCOCC3)c(Cl)cc21 (configuration not stated)", "103 to 105 °C"),
    ("CC(Oc1ccnc2cc(Cl)ccc12)c1ccccc1F (configuration not stated)", "53 to 54 °C"),
    ("CC(=O)NC1=NN(c2ccc(Cl)cc2)CC1", "171 to 173 °C"),
    ("NS(=O)(=O)c1ccccc1-c1cnco1", "157 to 163 °C"),
    ("COc1ccccc1N1CCN(CCn2c(=O)c3sccc3n(CCC(=O)O)c2=O)CC1", "215 to 216 °C"),
    ("COc1cc(OC)c(-c2cccs2)cc1/C=C/C(=O)c1ccccc1C(=O)O", "196 to 198 °C"),
]

###

Listed here are compounds together with their documented melting point.
Parameter measured: melting point

# Compound, Test value
rows = [
    ("Cc1cccc(C)c1NC(=S)C1(C)CCc2c(C)c(O)c(C)c(C)c2O1 (stereo not drawn)", "122 to 123 °C"),
    ("CC(C)CC(NC(=O)C(Cc1c[nH]c2ccccc12)NC(=O)OC(C)(C)C)C(=O)NCCC(=O)CCl (stereo not drawn)", "79 to 81 °C"),
    ("COc1cccc(-c2ccc(N3CCCN(c4ccc(-c5cccc(OC)c5)cn4)CC3)nc2)c1", "146 to 149 °C"),
    ("COc1ccc(-c2cncc(C#N)c2-c2ccc3[nH]ccc3c2)cc1OC", "215 to 217 °C"),
    ("CN1CCN(C(=O)CN2CCN(C(=O)c3cc(C(F)(F)F)cc(C(F)(F)F)c3)[C@H](Cc3c[nH]c4ccccc34)C2)CC1", "105 to 108 °C"),
    ("Cc1ccc(-c2ccc(Cl)cc2Cl)c(=O)[nH]1", "266 to 268 °C"),
    ("Cc1cn([C@H]2CC(N=[N+]=[N-])[C@@H](COC(=O)C(C)(C)CC(=O)N[C@@H](Cc3ccccc3)[C@H](O)C(=O)N3CSC[C@H]3C(=O)NC(C)(C)C)O2)c(=O)[nH]c1=O (stereo partly drawn)", "83 to 84 °C"),
    ("CC(C)CC1(C(CCN2C(=O)c3c(F)ccc(F)c3C2=O)C(=O)NO)CCN(CCc2ccccc2)C1=O (stereo not drawn)", "131 to 132 °C"),
    ("COc1ccc(-n2c3ccccc3c3cc(C=C(C#N)c4cc(C(F)(F)F)cc(C(F)(F)F)c4)ccc32)cc1", "198 to 200 °C"),
    ("Cc1sc(-c2ccccc2)nc1COc1ccc(CCC[C@@H]2OC(=O)NC2=O)cc1", "113 to 114 °C"),
    ("O=C(O)C1Oc2ccccc2C2(CC2)c2cccc(Cl)c2O1 (stereo not drawn)", "154 to 158 °C"),
    ("COc1cccc(CNS(=O)(=O)Cc2ccc3[nH]cc(CC#N)c3c2)c1", "125 to 126 °C"),
    ("CC(C)(C)OC(=O)NC(Cc1ccccc1)C(=O)NC1N=C(c2ccccc2)c2ccccc2NC1=O (mixture of isomers)", "143 to 153 °C"),
    ("CCS(=O)(=O)N(Cc1cccnc1)c1ccc(Oc2ccccc2)cc1", "79 to 80 °C"),
    ("CC(=O)Nc1ccc(OC(C)=O)c2cnsc12", "215 to 216 °C"),
    ("CN(C)C(=O)C(c1ccc(N)cc1)C1(O)CCCCC1 (stereo not drawn)", "169 to 170 °C"),
    ("C=CCn1c(=O)c2c(nc(/C=C/c3cc(OC)c(OC(=O)c4ccccc4)c(OC)c3)n2C)n(CC=C)c1=O", "179 to 180 °C"),
    ("CC(=O)Nc1ccc(O[C@@H]2CNC[C@H]2O)cc1 (relative stereo)", "200 °C"),
]
